Task for the reader: assign each of the following molecules its reported Kd.
Biological target: PPARs delta (Homo sapiens, UniProt Q03181)
Sequence (Q03181 171-441 limits assumed): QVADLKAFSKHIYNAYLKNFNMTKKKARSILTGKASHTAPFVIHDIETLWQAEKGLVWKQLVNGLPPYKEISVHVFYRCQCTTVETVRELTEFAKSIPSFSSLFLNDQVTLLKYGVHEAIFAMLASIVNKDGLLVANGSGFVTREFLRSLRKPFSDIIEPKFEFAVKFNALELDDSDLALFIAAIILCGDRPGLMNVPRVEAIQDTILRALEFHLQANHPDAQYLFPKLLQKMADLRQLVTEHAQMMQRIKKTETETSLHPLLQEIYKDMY
Assay: PPAR transactivation test, PPAR delta (HeLN reporter cells)
Conditions: luciferase reporter, Gal-hPPAR delta, n.a. means not active, read-out: PPARs delta Kd app
Write the answer as a number in µM, unit excluded.

## Input Indicate its recorded Kd; the molecule in question is CN(C)c1ccc(NC(=O)N(C)c2cccc(-c3ccc(C[C@H](Nc4ccccc4C(=O)c4ccccc4)C(=O)O)cc3)c2)cc1 [Example 7]
## Output 4

## Input Write down Kd measured for item CCCCCCCC(=O)N(C)Cc1cccc(-c2ccc(C[C@H](OCC)C(=O)O)cc2)c1 [Example 5]
## Output 4

## Input Name the recorded Kd of the item CCCCCCCNC(=O)N(C)c1cccc(-c2ccc(C[C@H](Nc3ccccc3C(=O)c3ccccc3)C(=O)O)cc2)c1 [Example 3] in your answer.
## Output 0.25

###

Target: PPAR gamma (Homo sapiens)
Sequence (P37231 238-505 limits assumed): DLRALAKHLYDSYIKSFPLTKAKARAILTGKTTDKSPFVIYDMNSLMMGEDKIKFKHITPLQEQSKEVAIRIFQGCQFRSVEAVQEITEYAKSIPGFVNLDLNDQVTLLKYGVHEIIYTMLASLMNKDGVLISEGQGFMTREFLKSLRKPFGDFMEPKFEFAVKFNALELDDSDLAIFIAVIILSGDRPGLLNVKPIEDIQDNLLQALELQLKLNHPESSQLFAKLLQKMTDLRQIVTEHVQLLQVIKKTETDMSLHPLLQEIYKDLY
Test: PPAR transactivation test, PPAR gamma (HeLN reporter cells)
Conditions: luciferase reporter, Gal-hPPAR gamma, n.a. means not active, read-out: PPAR gamma Kd app
Exercise: state measured Kd for each of the molecules provided.
Provide the reading as a plain figure in nM.

## Input Retrieve Kd measured for CN(C)c1ccc(NC(=O)N(C)c2cccc(-c3ccc(C[C@H](Nc4ccccc4C(=O)c4ccccc4)C(=O)O)cc3)c2)cc1 and print it.
## Output 8

## Input Output measured Kd for this item: CCCOc1ccc2cc(C(=O)N(C)Cc3cccc(-c4ccc(CC5SC(=O)NC5=O)cc4)c3)ccc2c1 (stereo not drawn)
## Output 1

## Input Please report the measured Kd for CCCCCCCC(=O)N(C)Cc1cccc(-c2ccc(C[C@H](OCC)C(=O)O)cc2)c1
## Output 2

## Input // Input: COCCOCOc1ccc2cc(C(=O)N(C)Cc3cccc(-c4ccc(Nc5ccccc5C(=O)O)cc4)c3)ccc2c1 . Output its Kd only.
## Output 30

## Input Consider the molecule CCCCCCCNC(=O)N(C)c1cccc(-c2ccc(C[C@H](Nc3ccccc3C(=O)c3ccccc3)C(=O)O)cc2)c1 and give its recorded Kd.
## Output 15

## Input Look up and report measured Kd for this entry: COCCOCOc1ccc2cc(C(=O)N(C)Cc3cccc(-c4ccc(CC5SC(=O)NC5=O)cc4)c3)ccc2c1 (stereo not drawn)
## Output 0.5
